Entries with reported IC50 on Tyrosine-protein kinase ABL1 (Homo sapiens, UniProt P00519)
Sequence (P00519 whole entry): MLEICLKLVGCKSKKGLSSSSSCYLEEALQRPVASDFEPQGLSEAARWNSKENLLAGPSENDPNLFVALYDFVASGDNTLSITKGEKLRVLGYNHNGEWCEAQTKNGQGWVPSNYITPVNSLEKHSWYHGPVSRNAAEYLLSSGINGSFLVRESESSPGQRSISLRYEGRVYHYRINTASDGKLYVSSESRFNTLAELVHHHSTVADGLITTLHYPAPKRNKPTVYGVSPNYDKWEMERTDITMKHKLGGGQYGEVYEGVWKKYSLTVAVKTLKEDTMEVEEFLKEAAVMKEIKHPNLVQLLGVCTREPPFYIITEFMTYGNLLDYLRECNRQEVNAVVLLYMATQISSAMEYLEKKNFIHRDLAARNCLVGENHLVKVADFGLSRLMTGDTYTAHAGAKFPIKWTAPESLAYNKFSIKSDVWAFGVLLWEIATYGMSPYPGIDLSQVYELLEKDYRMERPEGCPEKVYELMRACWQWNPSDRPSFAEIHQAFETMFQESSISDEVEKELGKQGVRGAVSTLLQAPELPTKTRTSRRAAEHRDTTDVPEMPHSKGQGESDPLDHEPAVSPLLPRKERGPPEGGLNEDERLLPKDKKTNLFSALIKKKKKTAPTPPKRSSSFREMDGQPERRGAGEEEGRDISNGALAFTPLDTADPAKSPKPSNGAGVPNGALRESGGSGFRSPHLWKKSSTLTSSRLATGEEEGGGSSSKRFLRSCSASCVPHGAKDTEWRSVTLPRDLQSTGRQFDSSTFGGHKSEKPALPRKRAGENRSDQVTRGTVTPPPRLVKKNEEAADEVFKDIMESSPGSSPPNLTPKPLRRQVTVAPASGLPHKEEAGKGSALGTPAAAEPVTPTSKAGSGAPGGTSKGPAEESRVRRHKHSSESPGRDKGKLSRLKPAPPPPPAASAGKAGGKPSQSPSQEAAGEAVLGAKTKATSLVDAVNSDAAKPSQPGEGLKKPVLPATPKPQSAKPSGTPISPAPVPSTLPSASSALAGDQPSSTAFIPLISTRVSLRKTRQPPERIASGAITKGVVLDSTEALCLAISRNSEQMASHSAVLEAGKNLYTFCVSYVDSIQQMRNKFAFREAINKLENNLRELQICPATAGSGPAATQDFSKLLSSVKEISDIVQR
experimentalEndpoint: IC50 (nM)

smilesRepr	testedTarget	unitLabel	comparativeSign	quantitativeResult
O=C1Nc2ccccc2O/C1=C\c1cc(/C=C/C(=O)N2CCCC2)cs1	Tyrosine-protein kinase ABL1 (Homo sapiens, UniProt P00519)	nM	>	1090
CN1C(=O)/C(=C/c2ccc(/C=C/C(=O)NCc3cccnc3)s2)Oc2ccccc21	Tyrosine-protein kinase ABL1 (Homo sapiens, UniProt P00519)	nM	=	1900
O=C1Nc2ccccc2O/C1=C\c1ccc(/C=C/C(=O)N2CCCC2)o1	Tyrosine-protein kinase ABL1 (Homo sapiens, UniProt P00519)	nM	>	1140
O=C(/C=C/c1cccc(/C=C2\Oc3ccccc3NC2=O)c1)NCc1ccccn1	Tyrosine-protein kinase ABL1 (Homo sapiens, UniProt P00519)	nM	>	1010
O=C(/C=C/c1ccc(/C=C2\Oc3ccccc3NC2=O)s1)Nc1ccc(N2CCOCC2)cc1	Tyrosine-protein kinase ABL1 (Homo sapiens, UniProt P00519)	nM	=	290
CN(C)CCNC(=O)/C=C/c1ccc(/C=C2\Oc3ccccc3N(C)C2=O)s1	Tyrosine-protein kinase ABL1 (Homo sapiens, UniProt P00519)	nM	=	820

###

# testedTarget: UniProt:P35968
# Sequence (P35968 whole entry): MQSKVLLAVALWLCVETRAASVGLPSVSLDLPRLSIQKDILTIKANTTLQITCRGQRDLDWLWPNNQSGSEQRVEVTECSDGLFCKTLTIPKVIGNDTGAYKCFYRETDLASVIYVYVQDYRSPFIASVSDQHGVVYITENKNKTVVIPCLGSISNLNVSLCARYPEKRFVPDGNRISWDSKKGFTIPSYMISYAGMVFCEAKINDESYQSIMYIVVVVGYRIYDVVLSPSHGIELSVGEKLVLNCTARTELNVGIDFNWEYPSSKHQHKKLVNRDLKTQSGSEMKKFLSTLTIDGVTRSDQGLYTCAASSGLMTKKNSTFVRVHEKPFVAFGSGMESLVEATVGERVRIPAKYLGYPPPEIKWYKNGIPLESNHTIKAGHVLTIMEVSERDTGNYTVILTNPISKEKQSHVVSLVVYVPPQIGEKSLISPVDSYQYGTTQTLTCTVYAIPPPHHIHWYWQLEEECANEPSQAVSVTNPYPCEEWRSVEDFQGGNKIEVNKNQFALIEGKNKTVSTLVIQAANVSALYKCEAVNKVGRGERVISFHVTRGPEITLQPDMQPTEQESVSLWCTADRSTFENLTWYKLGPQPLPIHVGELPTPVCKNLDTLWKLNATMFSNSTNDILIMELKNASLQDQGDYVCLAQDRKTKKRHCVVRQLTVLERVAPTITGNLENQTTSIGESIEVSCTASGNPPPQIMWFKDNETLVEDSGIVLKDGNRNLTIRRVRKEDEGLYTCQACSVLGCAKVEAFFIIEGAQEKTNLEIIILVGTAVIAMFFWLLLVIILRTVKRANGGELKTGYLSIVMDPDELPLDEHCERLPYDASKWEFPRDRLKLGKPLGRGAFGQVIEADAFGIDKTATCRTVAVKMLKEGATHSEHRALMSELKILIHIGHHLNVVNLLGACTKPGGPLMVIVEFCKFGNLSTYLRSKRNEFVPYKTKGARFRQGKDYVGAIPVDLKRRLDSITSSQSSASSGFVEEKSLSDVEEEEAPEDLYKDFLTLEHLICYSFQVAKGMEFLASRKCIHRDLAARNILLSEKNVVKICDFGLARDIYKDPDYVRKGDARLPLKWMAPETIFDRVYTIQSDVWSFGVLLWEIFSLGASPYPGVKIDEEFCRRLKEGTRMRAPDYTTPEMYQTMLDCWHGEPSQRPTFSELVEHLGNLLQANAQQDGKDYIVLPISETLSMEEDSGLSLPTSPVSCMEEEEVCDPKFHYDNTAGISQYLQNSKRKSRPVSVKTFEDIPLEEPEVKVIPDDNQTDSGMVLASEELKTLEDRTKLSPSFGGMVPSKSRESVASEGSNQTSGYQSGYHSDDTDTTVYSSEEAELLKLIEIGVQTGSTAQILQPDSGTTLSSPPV
# procedureDetails: Inhibition of KDR expressed in baculovirus system at 4 ug/ml by ELISA
Quick list: inhibition per entry.

smilesRepr	inhibition, %
CN1C(=O)/C(=C/c2ccc(/C=C/C(=O)N3CCN(CCO)CC3)s2)Oc2ccccc21	88.3
CN1C(=O)/C(=C/c2ccc(/C=C/C(=O)NCc3ccncc3)s2)Oc2ccccc21	77.1
CN(C)CCNC(=O)/C=C/c1ccc(/C=C2\Oc3ccccc3N(C)C2=O)s1	83.9
CN1C(=O)/C(=C/c2cccc(/C=C/C(=O)Nc3ccc(N4CCOCC4)cc3)c2)Oc2ccccc21	79.9
CN1C(=O)/C(=C/c2ccc(/C=C/C(=O)NCc3cccnc3)s2)Oc2ccccc21	76.7
CN(C)CCNC(=O)/C=C/c1cccc(/C=C2\Oc3ccccc3NC2=O)c1	70.8
O=C1Nc2ccccc2O/C1=C\c1ccc(/C=C/C(=O)N2CCN(CCO)CC2)o1	76.7
CN1C(=O)/C(=C/c2ccc(/C=C/C(=O)N3CCCC3)s2)Oc2ccccc21	79.2

Every entry's value here was drawn from ChEMBL document CHEMBL1140887.
